These data points were gathered from patent US20170088632A1.

target: human MASP-2 (human, UniProt O00187 16-686); assay: cell-based or functional assay
Sequence (O00187 16-686): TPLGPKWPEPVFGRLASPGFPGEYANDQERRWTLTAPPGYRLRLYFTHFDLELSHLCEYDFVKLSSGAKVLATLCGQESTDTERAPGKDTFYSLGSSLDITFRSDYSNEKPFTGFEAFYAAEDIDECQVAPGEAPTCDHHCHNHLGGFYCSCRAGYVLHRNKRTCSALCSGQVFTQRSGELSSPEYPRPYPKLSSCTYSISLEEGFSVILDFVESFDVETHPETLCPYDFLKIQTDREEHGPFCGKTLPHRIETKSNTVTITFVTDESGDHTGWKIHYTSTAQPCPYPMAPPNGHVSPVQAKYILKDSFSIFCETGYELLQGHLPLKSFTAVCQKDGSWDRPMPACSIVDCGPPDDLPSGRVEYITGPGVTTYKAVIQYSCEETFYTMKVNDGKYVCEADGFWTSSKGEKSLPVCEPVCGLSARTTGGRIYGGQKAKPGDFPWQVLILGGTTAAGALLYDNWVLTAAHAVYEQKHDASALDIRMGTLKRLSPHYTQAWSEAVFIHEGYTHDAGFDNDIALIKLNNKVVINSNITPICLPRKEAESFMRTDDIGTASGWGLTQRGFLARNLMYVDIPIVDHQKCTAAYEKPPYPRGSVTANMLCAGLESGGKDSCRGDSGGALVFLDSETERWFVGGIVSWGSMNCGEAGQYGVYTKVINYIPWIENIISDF
quantity-name: Functional IC50, C3b deposition, human serum Exp #3

What measured Functional IC50, C3b deposition, human serum Exp #3 goes with scFv mother clone 17D20 (scFv, also called 17D20 (17P10); 17D20mc) scFv: QVTLKESGPVLVKPTETLTLTCTVSGFSLSRGKMGVSWIRQPPGKALEWLAHIFSSDEKSYRTSLKSRLTISKDTSKNQVVLTMTNMDPVDTATYYCARIRAGGIDYWGQGTLVTVSSKLSGSASAPKLEEGEFSEARVQPVLTQPPSVSVSPGQTASITCSGDKLGDKFAYWYQQKPGHSPVLVIYQDNKRPSGIPGRFSGSNSGNTATLTISGTQAMDEADYYCQAWDSSTAVFGTGTKVTVLAAAGSEQKLISEEDLNSHHHHHH ? 24.1 nM
